Reference source for all entries: ChEMBL document CHEMBL2176911

SYSTEM UNDER TEST: Homeodomain-interacting protein kinase 1 (Homo sapiens)
Sequence (Q86Z02 whole entry): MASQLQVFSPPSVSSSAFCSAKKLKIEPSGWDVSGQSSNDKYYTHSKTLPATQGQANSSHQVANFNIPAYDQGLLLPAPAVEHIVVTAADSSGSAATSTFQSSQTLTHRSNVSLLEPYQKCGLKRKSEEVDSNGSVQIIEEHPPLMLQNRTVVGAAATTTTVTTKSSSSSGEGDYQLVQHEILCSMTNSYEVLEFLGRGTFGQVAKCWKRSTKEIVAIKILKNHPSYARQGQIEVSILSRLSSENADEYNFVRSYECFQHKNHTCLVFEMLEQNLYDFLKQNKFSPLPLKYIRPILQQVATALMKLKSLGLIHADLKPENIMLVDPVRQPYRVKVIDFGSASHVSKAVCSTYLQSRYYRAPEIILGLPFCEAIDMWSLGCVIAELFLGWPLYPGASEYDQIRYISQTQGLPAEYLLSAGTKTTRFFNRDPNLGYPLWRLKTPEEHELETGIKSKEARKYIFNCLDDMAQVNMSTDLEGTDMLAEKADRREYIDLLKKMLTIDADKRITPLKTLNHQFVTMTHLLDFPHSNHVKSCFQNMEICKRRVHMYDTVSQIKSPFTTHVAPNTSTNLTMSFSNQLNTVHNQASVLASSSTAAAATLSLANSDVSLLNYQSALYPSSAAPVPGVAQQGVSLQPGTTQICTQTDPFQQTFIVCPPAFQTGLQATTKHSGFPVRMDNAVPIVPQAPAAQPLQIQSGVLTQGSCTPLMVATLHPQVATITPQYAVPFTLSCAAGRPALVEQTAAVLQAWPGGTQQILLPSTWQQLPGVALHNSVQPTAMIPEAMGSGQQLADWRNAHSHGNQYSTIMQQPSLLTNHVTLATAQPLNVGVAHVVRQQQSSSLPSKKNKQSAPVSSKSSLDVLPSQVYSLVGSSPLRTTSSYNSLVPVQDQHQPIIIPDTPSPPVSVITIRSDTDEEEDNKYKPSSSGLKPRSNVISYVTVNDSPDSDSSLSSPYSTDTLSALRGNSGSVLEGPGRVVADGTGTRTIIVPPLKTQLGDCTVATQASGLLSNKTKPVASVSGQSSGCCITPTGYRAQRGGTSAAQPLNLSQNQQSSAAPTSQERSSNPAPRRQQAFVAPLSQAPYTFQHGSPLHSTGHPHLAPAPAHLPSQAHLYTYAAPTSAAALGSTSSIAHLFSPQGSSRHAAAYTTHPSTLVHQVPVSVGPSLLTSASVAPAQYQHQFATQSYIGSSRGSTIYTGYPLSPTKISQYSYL
OUTCOME MEASURE: Kd (µM)
One number for each entry, in µM.

Ask: // map O=C1NC(Nc2ccccc2)=N/C1=C\c1ccc2c(c1)OCO2 to recorded Kd (system: Homeodomain-interacting protein kinase 1 (Homo sapiens))
Reply: 0.32

====

SYSTEM UNDER TEST: Dual specificity tyrosine-phosphorylation-regulated kinase 3 (Homo sapiens)
Sequence (O43781 whole entry): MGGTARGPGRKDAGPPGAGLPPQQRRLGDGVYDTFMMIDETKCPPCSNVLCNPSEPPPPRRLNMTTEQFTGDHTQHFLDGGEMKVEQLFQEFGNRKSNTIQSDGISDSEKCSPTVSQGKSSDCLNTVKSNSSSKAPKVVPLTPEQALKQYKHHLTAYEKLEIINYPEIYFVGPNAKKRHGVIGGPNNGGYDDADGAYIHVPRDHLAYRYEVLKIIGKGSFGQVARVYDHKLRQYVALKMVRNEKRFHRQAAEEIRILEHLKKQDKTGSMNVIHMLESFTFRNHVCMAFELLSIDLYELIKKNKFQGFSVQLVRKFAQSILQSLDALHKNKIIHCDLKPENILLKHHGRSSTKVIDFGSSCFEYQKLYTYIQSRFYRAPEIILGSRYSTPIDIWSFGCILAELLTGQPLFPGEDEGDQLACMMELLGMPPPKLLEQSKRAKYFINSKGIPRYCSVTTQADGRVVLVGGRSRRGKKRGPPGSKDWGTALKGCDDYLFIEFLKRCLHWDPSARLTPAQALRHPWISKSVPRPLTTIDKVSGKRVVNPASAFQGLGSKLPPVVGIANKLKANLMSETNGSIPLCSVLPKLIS
TEST METHOD NOTES: Inhibition of human recombinant GST-tagged DYRK3 expressed in Escherichia coli using GRSRSRSRSRSR as substrate and [gamma33P]ATP after 30 mins by scintillation counting
OUTCOME MEASURE: IC50 (nM)
Give bare numbers, in nM.

CN1C(=O)/C(=C/c2ccc3c(c2)OCO3)N=C1N [LEUCETTAMINE B] = 1400

Now consider a different molecule.
Ask: So what's the measured IC50 for this one? COc1ccc2c(c1)[nH]c1c(C)nccc12 [HARMINE]
Reply: 210
